Reference source: ChEMBL document CHEMBL1961873

Biological target: Serine/threonine-protein kinase 4 (Homo sapiens) (UniProt Q13043);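 also: mean inhibition of MST1, reported as part of the GSK PKIS dataset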
Sequence (whole entry): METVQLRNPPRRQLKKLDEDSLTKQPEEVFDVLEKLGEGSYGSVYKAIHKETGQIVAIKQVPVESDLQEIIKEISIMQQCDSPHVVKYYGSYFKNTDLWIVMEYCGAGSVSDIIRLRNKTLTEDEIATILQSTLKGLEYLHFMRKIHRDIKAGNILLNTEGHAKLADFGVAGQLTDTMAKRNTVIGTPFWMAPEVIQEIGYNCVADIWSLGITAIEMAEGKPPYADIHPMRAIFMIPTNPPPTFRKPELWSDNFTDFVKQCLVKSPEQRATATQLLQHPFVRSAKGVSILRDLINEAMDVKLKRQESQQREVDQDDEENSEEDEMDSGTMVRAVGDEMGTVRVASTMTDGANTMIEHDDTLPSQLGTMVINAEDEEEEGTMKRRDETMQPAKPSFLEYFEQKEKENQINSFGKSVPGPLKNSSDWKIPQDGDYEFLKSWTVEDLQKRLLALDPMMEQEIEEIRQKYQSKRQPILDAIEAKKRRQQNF
Conditions: at 0.1 µM
QUANTITY NAME: inhibition (%)
Give the quantity in %, number only.

INPUT: Look up inhibition: Fc1cccc(COc2ccc(Nc3ncnc4sc(-c5cccs5)cc34)cc2Cl)c1
OUTPUT: 0.07

INPUT: What measured inhibition goes with CS(=O)(=O)Nc1ccc(N/C=C2\C(=O)Nc3ccccc32)cc1 ?
OUTPUT: 6.72

INPUT: Value lookup for inhibition; key = Nc1ncnc2occ(-c3ccc(NC(=O)Nc4cc(C(F)(F)F)cc(C(F)(F)F)c4)cc3)c12
OUTPUT: 3.59

INPUT: # query: inhibition of entry CCc1cccc(NC(=O)Nc2ccc(Oc3ccc4nc(NC(=O)OC)[nH]c4c3)cc2)c1
OUTPUT: 3.69

INPUT: // returns reported inhibition for input COc1cc2ncn(-c3cc(O[C@H](C)c4ccccc4Cl)c(C(N)=O)s3)c2cc1OC
OUTPUT: 40.3

INPUT: Which inhibition reading was recorded for the compound Cc1ccc(C(=O)NC2CCCCC2)cc1-c1ccc(C(=O)NCC2CC2)cc1 ?
OUTPUT: 5.76

INPUT: // returns reported inhibition for input Fc1cccc(COc2ccc(Nc3ncnc4cc(-c5ccc[nH]5)sc34)cc2Cl)c1
OUTPUT: 0.61

INPUT: Which inhibition value belongs to c1cnn2ncc(-c3ccnc(Nc4ccc5c(c4)OCCO5)n3)c2c1 ?
OUTPUT: 7.88

INPUT: Would you kindly share the measured inhibition for Cc1ccc(NC(=O)c2ccnc(N3CCCC3)c2)cc1-c1ccc(C(=O)NCC2CC2)cc1 ?
OUTPUT: 8.79

INPUT: Recorded inhibition for O=C1NC(=O)C(c2ccccc2Cl)=C1Nc1cccc(O)c1 , please?
OUTPUT: 7.3

INPUT: Given Cc1nnc(-c2ccc(C)c(-c3ccc(C(=O)Nc4cccc(C#N)c4)cc3)c2)o1 , state its recorded inhibition.
OUTPUT: 1.52

INPUT: Requested read-out: inhibition. Entry: N#Cc1c(NC(=O)c2cccc3ccccc23)sc2c1CCCC2
OUTPUT: 3.4

INPUT: Could you share which inhibition value was measured for COc1cc(C)c(NC(=O)CN(C)C)cc1Nc1nc(Nc2cccc(F)c2C(N)=O)c2cc[nH]c2n1 ?
OUTPUT: 4.73

INPUT: Please look up its inhibition: Cc1nn(C)c2cc(N(C)c3ccnc(Nc4cccc(S(N)(=O)=O)c4)n3)ccc12
OUTPUT: 1.85

INPUT: Which measured inhibition value corresponds to Nc1ncnc2occ(-c3ccc(NC(=O)Nc4cccc(C(F)(F)F)c4)cc3)c12 ?
OUTPUT: 5.73

INPUT: Please give the measured inhibition for this compound: COC(=O)Nc1nc2cc(Oc3ccc(NC(=O)Nc4cccc(C(=O)O)c4)cc3)ccc2[nH]1
OUTPUT: 7.79

INPUT: For the compound NS(=O)(=O)c1cccc(-c2ccc3c(NC(=O)C4CC4)n[nH]c3c2)c1 , what inhibition is on record?
OUTPUT: -3.97

INPUT: Could you share which inhibition value was measured for COc1cc2ncn(-c3cc(OCc4ccccc4Cl)c(C(N)=O)s3)c2cc1OC ?
OUTPUT: 7.11

INPUT: # inhibition lookup, item COc1cc2c(cc1Nc1nc(N3CCc4ccccc43)c3cc[nH]c3n1)N(C(=O)CN(C)C)CC2
OUTPUT: 5.66

INPUT: # lookup: inhibition of CS(=O)(=O)CCNCc1ccc(-c2ccc3ncnc(Nc4ccc(OCc5ccccc5)c(Cl)c4)c3c2)o1
OUTPUT: 0.89

INPUT: # inhibition lookup, item CCn1c(-c2nonc2N)nc2cncc(C(=O)N3CC[C@H](N)C3)c21
OUTPUT: 3.69

INPUT: Which inhibition reading was recorded for the compound CC(=O)Nc1cccc(C#Cc2cncnc2Nc2ccc(OCc3cccc(F)c3)c(Cl)c2)n1 ?
OUTPUT: 4

INPUT: # inhibition lookup, item Cc1cccc(-c2n[nH]cc2-c2ccc3ncccc3n2)n1
OUTPUT: -0.22

INPUT: Returns the measured inhibition for the input compound. Input: COc1ccc(-c2ccncc2)cc1C(N)=O
OUTPUT: 3.27

INPUT: // returns reported inhibition for input COc1ccc(-c2nn3ncccc3c2-c2ccnc(Nc3ccc(Cl)c(C(F)(F)F)c3)n2)cc1
OUTPUT: 1.84

INPUT: Need inhibition, item COc1cc2ncn(-c3cc(O[C@@H](C)c4ccccc4Cl)c(C(N)=O)s3)c2cc1OC
OUTPUT: 8.63

INPUT: Please give the measured inhibition for this compound: CN(C)c1cc2c(Nc3ccc4nc(Cc5ccccc5)[nH]c4c3)ncnc2cn1
OUTPUT: 4.35

INPUT: // query inhibition value for entry CCn1c(-c2nonc2N)nc2c(N3CCCC3)nccc21
OUTPUT: -1.49

INPUT: Requested field: inhibition. Item: O=C1NC(=O)C(c2cccc(Cl)c2)=C1Nc1ccc(O)c(Cl)c1
OUTPUT: 33.6

INPUT: Entry O=C1Nc2ccc(C(=O)c3ccco3)cc2C1=Cc1cc(Cl)c(O)c(Cl)c1 has what inhibition?
OUTPUT: 21.7

INPUT: Using the record for COc1ccc(COc2ccc(Cc3cnc(N)nc3N)cc2OC)cc1 , report its inhibition.
OUTPUT: 4.51

INPUT: For O=C1NC(=O)C(N2CCc3ccccc32)=C1c1ccc(Cl)cc1 , what is its reported inhibition?
OUTPUT: 6.36

INPUT: Quick one: inhibition for CS(=O)(=O)CCN(CC#N)Cc1ccc(-c2ccc3ncnc(Nc4ccc(OCc5cccc(F)c5)c(Cl)c4)c3c2)o1 ?
OUTPUT: 0.41
